Molecular target: T1, cynomolgus (cyno) TMEM106B (cynomolgus, UniProt Q9NUM4 2-274 (human entry))
T1 construct: on transiently transfected HEK293 cells
Experiment: FACS, HEK293 transfectants;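 further: flow cytometry binding of hybridoma supernatants to HEK293 cells transiently expressing human, cyno or mouse TMEM106B, read as anti-mouse-APC median fluorescence, live cells only, 30 min on ice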
fold-change over parental HEK293 under 20 fold gets true (1), anything at or over 20 fold gets false (0).

Binder: anti-TMEM106B antibody TM-18 (antibody, V domains shown) VH: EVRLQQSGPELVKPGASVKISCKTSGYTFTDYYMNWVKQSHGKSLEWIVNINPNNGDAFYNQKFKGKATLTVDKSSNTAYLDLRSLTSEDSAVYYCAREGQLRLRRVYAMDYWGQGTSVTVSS VL: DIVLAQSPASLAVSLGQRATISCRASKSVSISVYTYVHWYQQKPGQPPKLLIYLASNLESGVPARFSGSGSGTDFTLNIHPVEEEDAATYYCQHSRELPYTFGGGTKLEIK
Cat: false (0)
//
Binder: anti-TMEM106B antibody TM-50 (antibody, V domains shown, mouse IgG from hybridoma) VH: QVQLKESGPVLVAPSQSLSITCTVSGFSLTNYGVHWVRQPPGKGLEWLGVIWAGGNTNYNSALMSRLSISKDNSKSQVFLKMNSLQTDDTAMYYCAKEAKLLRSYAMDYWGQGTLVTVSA VL: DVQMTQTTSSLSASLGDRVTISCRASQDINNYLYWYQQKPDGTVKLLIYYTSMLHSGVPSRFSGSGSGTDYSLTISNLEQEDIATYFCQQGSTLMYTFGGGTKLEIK
Cat: true (1)
//
Binder: anti-TMEM106B antibody TM-16 (antibody, V domains shown) VH: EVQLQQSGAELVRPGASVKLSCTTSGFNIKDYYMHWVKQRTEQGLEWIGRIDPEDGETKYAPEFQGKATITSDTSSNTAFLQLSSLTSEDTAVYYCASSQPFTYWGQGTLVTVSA VL: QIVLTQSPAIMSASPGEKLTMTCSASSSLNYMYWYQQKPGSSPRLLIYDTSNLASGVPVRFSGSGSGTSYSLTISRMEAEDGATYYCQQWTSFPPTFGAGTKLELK
Cat: true (1)
//
Binder: anti-TMEM106B antibody TM-14 (antibody, V domains shown, mouse IgG from hybridoma) VH: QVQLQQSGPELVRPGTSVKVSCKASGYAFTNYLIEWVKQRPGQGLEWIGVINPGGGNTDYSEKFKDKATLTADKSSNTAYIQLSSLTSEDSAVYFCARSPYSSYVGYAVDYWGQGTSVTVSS VL: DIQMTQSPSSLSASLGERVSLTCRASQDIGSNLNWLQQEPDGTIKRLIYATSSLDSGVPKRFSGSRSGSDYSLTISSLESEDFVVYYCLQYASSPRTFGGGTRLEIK
Cat: true (1)
//
Binder: anti-TMEM106B antibody TM-15 (antibody, V domains shown, mouse IgG from hybridoma) VH: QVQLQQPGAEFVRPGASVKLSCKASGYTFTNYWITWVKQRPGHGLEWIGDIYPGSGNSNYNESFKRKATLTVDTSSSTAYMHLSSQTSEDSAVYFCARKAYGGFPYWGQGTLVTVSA VL: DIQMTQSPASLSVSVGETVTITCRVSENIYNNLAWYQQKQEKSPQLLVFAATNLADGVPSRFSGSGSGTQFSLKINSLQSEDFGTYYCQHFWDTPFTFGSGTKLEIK
Cat: false (0)
